- target: rabbit-lung ACE (Oryctolagus cuniculus, UniProt P12822)
- Construct: rabbit-lung ACE (E.C.3.4.15.1., Sigma-Aldrich); purchased Sigma-Aldrich; host or cells: rabbit lung (tissue-derived enzyme)
- Sequence (P12822 34-1310): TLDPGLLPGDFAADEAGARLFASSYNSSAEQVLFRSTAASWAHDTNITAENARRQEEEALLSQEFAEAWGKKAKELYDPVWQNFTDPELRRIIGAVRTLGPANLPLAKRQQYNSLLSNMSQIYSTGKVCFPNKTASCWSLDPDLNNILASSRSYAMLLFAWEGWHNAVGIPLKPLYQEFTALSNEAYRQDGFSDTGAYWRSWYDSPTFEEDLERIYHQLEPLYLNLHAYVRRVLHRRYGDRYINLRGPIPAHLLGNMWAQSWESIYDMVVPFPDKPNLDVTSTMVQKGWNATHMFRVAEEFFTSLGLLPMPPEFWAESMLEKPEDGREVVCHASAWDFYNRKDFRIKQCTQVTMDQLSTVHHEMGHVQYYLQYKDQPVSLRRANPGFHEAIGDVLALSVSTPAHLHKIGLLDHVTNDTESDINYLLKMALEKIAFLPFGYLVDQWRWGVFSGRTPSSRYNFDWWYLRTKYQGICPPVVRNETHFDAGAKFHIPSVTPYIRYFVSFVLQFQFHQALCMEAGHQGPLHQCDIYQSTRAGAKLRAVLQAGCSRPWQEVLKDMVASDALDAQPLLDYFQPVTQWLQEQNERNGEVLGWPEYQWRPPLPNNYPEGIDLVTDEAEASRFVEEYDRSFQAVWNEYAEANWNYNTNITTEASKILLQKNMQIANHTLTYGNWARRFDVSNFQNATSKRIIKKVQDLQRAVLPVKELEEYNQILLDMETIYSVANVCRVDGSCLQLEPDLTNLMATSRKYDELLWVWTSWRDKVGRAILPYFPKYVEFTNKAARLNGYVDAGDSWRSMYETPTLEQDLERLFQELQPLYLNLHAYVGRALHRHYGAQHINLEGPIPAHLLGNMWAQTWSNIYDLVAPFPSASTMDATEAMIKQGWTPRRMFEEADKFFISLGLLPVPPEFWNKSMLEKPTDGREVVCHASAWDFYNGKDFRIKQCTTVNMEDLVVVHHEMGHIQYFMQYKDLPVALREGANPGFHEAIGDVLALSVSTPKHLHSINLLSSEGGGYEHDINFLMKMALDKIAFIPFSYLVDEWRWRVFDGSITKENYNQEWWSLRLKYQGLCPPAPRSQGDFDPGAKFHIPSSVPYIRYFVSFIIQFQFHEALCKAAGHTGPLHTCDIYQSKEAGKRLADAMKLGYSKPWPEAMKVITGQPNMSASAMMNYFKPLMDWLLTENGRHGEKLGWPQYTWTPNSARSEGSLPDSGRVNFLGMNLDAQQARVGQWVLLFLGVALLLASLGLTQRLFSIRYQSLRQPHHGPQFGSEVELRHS
- procedureSummary: ACE-inhibitory activity of synthetic peptides (fluorescence assay, substrate Abz-Gly-Phe(NO2)-Pro)
- Assay type: biochemical
- testConditions: means ± SD of three different experiments, ND = not detected, read-out: ACEi Activity IC50 (µM) ± SD
No end group written: not given here.
readoutType: IC50 (µM)

- DCHYFL [Peptide no. 2 de novo, DCHYFL]: 41.5

A = NALLCSNS [compound 18]
B = VCGEAFGKA [Peptide no. 14]
C = CPANGFY [Peptide no. 19, CPANGFY]
Highest IC50 first, then in falling order down to the smallest. Respond with the label ranking, as requested.
B, C, A

Data origin, for the record: paper PMC8836281
